# System: NCI/ADR-RES ovarian
# ASSAY: NCI tumour cell line growth inhibition, 48 h
READOUT_TYPE: GI50

COc1cc2c(c(OC)c1OC)-c1ccc(O)c(=O)cc1[C@@H](NC(C)=O)CC2 | 4.6 µM
COC(=O)[C@H]1[C@H]2C[C@@H]3c4[nH]c5cc(OC)ccc5c4CCN3C[C@H]2C[C@@H](OC(=O)/C=C/c2cc(OC)c(OC)c(OC)c2)[C@@H]1OC | 4.55 µM
COC(=O)c1ccc2c(c1)C(=O)c1c-2n(CCCN)c(=O)c2cc(OC)c(OC)cc12 | 42.6 µM
CCCCNC(=O)Oc1ccc(/C(=C(/CC)Cc2ccccc2)c2ccc(OCCN3CCCCCC3)cc2)cc1 | 42.1 µM
CC(=O)c1cccc(-c2cccc(-c3ccn(CCN4CCOCC4)n3)c2)c1 | > 20 µM

From here, focus on the item given below.
Lab note: measured GI50 of "COc1cc2c3c(ncc2c(OC)c1OC)-c1cc2c(cc1C3)OCO2" was 36.9 µM
